Origin of the recorded values: PubChem BioAssay (NCI)

# Test system: CAKI-1 renal
# assay.details: NCI-60 one-dose screen, 48 h (100 = growth as untreated, 0 = no growth, -100 = all killed)
# study.conditions: 10 µM unless noted
About 83,000 compounds went through this panel and 20% of them were active in at least one assay; those are over-represented in the sample as a whole.
The class of a record is decided solely by its measured growth; consult low (below 50%), middle (50% to below 80%), high (80% or more)

| molecule | class.assignment |
| --- | --- |
| Nc1ccc(NC(=O)c2ccccc2)c2c1C(=O)c1ccccc1C2=O | high |
| CCCC(NC(=O)OCc1ccccc1)C(=O)O (configuration not stated) | high |
| O=C1/C(=C\c2cccn2Cc2ccccc2)c2ccccc2N1c1c(Cl)cccc1Cl | middle |
| CCN(CC)c1ccc2cc(C(Nc3ccc(Cl)cc3)c3nnnn3C(C)(C)C)c(=O)oc2c1 (configuration not stated) | middle |
| CC(C)(C)c1cc(C(=O)Nc2ccccc2C(=O)NCCN)cc(C(C)(C)C)c1 | low |
| COc1ncnc2c(-c3ccccc3)cn(COCc3ccccc3)c12 | middle |
| CCn1cc(-c2ccnc(NCCNS(=O)(=O)c3ccc(Br)cc3)c2)c(-c2cccc(OC)c2)n1 | middle |
| C#C[C@]1(O)CC[C@H]2[C@@H]3CC=C4c5nc(Nc6ccccc6[N+](=O)[O-])sc5CC[C@]4(C)[C@H]3CC[C@@]21C | low |
| Cc1ccc(Oc2c(/C=N/NC(=O)Cn3c(=O)sc4ccccc43)c(C)nn2-c2ccccc2)cc1 | low |
| Nc1nc(Nc2ccccc2)c2ncn(Cc3ccc4c(c3)OCO4)c2n1 | low |
| Brc1ccc(-c2nnc3c4[nH]ccc4ncn23)cc1 | high |
| CCN(CC)c1ccc2cc(C(Nc3ccc(Br)c(C(F)(F)F)c3)c3nnnn3C(C)(C)C)c(=O)oc2c1 (configuration not stated) | high |
| CC[C@@](C)(NC(=O)[C@H](C)NC(=O)CCNC(=O)C(C)(C)NC(=O)[C@H](C)NC(=O)[C@@H]1CCCN1C(=O)[C@@](C)(CC)NC(=O)[C@H](Cc1ccccc1)NC(=O)C1CCCN1C(=O)C(C)(C)NC(=O)C1CCCN1C(=O)C(C)(C)NC(C)=O)C(=O)NCCC(=O)N[C@@H](CC(C)C)C(=O)NC(C)(C)C(=O)NCCC(=O)N[C@@H](CC(C)C)C(=O)NC(C)(C)C(=O)NC(C)(C)C(=O)N[C@@H](CC(C)C)C(=O)NCCC(=O)NCO (some centres not stated) | low |
| N=C(N)c1ccc(-c2ccc(-c3ccc(-c4cccs4)s3)s2)cc1F | high |
| O=C(NCc1ccc(Cn2c(=O)sn(-c3ccccc3)c2=O)cc1)OCc1ccc2c(Br)cc(Br)c(O)c2n1 | low |
| COc1ccc(C(=O)/C=C/c2ccccn2)c(O)c1 | middle |

----------
# Tested on: SNB-75 CNS
# assay.details: NCI-60 one-dose screen, 48 h
# study.conditions: 10 µM unless noted
Compounds without any hit were thinned out: in the full panel of roughly 83,000, 20% have a hit. Active and inactive are the calls of the source. Rule for the calls: active = growth percent below 10; inactive = the rest.
Outcome codes: YES = active, NO = inactive

| molecule | system | class.assignment |
| --- | --- | --- |
| C#CCNC(=O)CC[C@@H](C)[C@H]1CC[C@H]2[C@@H]3CC[C@@H]4CC(=O)CC[C@]4(C)[C@H]3CC[C@]12C | SNB-75 CNS | YES |
| CSc1nc(N)c(N=Nc2ccc(S(=O)(=O)Nc3nnc(C)s3)cc2)c(=O)[nH]1 | SNB-75 CNS | NO |
| N/C(=N\c1nc2ccccc2[nH]1)NC(=O)Cc1cccc2ccccc12 | SNB-75 CNS | NO |
| O=C(Nc1ccc(F)cc1)c1ccccc1 | SNB-75 CNS | NO |
| O=C(NCc1ccccc1)C(Cl)Cl | SNB-75 CNS | NO |
| CCN(CC)CCCOc1ccc2c(c1)O/C(=C\c1cccc(OC)c1)C2=O | SNB-75 CNS | NO |
| Nc1cc(Cl)cc2cccnc12 | SNB-75 CNS | NO |
| COc1cc2c(c(OC)c1)C1c3cc(OC)ccc3NC(=O)N1CC2 (stereo not drawn) | SNB-75 CNS | NO |
| O=C(OCc1ccc2c(Cl)cc(Cl)c(O)c2n1)N1CCN(C(=O)c2cc3cc(F)ccc3[nH]2)CC1 | SNB-75 CNS | NO |
| CSc1cccc([N+](=O)[O-])c1 | SNB-75 CNS | NO |
| CS(=O)(=O)c1cccnn1 | SNB-75 CNS | NO |
| CC1(C)CC[C@]23CC[C@]4(C)[C@H](CC[C@@H]5[C@@]6(C)C/C(=C/c7ccncc7)C(=O)C(C)(C)[C@@H]6CC[C@]54C)[C@H]2[C@H]1OC3=O | SNB-75 CNS | YES |
| NC1=NC(=O)NC1(c1ccccc1)c1ccccc1 | SNB-75 CNS | NO |
| CCN(CC)CCSC(=O)C(O)(c1ccccc1)C1CCCC1 (stereo not drawn) | SNB-75 CNS | NO |
| COc1ccc2c(c1)c(-c1noc(C(=O)c3cn(C)c4ncc(Br)cc34)n1)cn2C | SNB-75 CNS | YES |
| O=[N+]([O-])c1ccc(O)c(-c2nc3ccccc3s2)c1 | SNB-75 CNS | NO |
| COc1ccc2c(c1)c(-c1noc(-c3cn(C)c4ncc(F)cc34)n1)cn2C | SNB-75 CNS | NO |
| N#Cc1ccc(-c2ccc(COc3ccc(CC4SC(=O)NC4=O)cc3)cc2)cc1 (stereo not drawn) | SNB-75 CNS | NO |
| Clc1ccc(/C=N/Nc2nc3ccccc3s2)c(Cl)c1 | SNB-75 CNS | NO |
| O=C1COCCN1c1ccc(NCc2cn(Cc3ccccc3)c3ccccc23)cc1 | SNB-75 CNS | NO |
| C[C@H]1[C@H](C)CC[C@]2(C(=O)N3CCN(C)CC3)CC[C@]3(C)C(=CC[C@@H]4[C@@]5(C)C/C(=C/c6ccco6)C(=O)C(C)(C)[C@@H]5CC[C@]43C)[C@H]12 | SNB-75 CNS | NO |
| O=C1/C(=C/c2cccc(OCc3ccccc3)c2)Oc2cc(OCCN3CCCCC3)ccc21 | SNB-75 CNS | NO |
| CCOC(=O)C(=Cc1ccccc1[N+](=O)[O-])C(=O)OCC | SNB-75 CNS | YES |
| C=C(C)[C@@H]1CC[C@]2(COCCC#N)CC[C@]3(C)[C@H](CC[C@@H]4[C@@](C)(CCCNCCC#N)[C@H](C(=C)C)CC[C@]43C)[C@@H]12 | SNB-75 CNS | NO |
| C#CCNC(=O)CC[C@]1(C)[C@H]2CC[C@@H]3[C@@H]([C@@](C)(O)CCC=C(C)C)CC[C@@]3(C)[C@]2(C)CC[C@H]1C(=C)C | SNB-75 CNS | YES |
| O=C1CC(C(F)(F)F)Cc2nc3ccc(Br)cc3cc21 (stereo not drawn) | SNB-75 CNS | NO |
| CCCCCCCCCN(CCCCCCCCC)C(C)C(=O)c1ccc2cc(Br)c3ccccc3c2c1 (stereo not drawn) | SNB-75 CNS | NO |
| COc1ccc(/C=C/C=C\C(=O)c2ccc(-n3ccnc3)cc2)cc1 | SNB-75 CNS | NO |
| Cn1cc(-c2nnc(-c3ccccc3)s2)c2cc(Br)cnc21 | SNB-75 CNS | NO |
| CC(=O)OC[C@]12CC[C@@H](C(=O)CBr)[C@@H]1[C@H]1CC[C@@H]3[C@@]4(C)CCCNC(C)(C)[C@@H]4CC[C@@]3(C)[C@]1(C)CC2 | SNB-75 CNS | YES |
| CCN(CC)c1ccc(/C=C/c2ccc3cc(C)ccc3[n+]2CC)cc1 | SNB-75 CNS | YES |
| C[C@H]1[C@H](C)CC[C@]2(C(=O)O)CC[C@]3(C)C(=CC[C@@H]4[C@@]5(C)C/C(=C/c6ccco6)C(=O)C(C)(C)[C@@H]5CC[C@]43C)[C@H]12 | SNB-75 CNS | YES |
| Brc1ccc(-c2nnc3c4[nH]ccc4ncn23)cc1 | SNB-75 CNS | NO |
| CCCCCCNC(=O)Nc1ncnc2c1ncn2-c1ccccc1 | SNB-75 CNS | NO |
| CCCCCCCCCCCCCCCCCCNC(=S)N/N=C/c1ccc(OC)c(OC)c1 | SNB-75 CNS | NO |
| CCn1cc(-c2ccnc(NCCNS(=O)(=O)c3ccc(Br)cc3)c2)c(-c2cccc(OC)c2)n1 | SNB-75 CNS | NO |
| C=C(C)[C@@H]1CC[C@]2(COC(=O)c3ccccc3C(=O)O)CC[C@]3(C)[C@H](CC[C@@H]4[C@@]5(C)CC[C@H](OC(=O)c6ccccc6C(=O)O)C(C)(C)[C@@H]5CC[C@]43C)[C@@H]12 | SNB-75 CNS | YES |
| COc1ccc(C2=C(c3cn(C)c4ccccc34)C(=O)OC2)cc1OC | SNB-75 CNS | YES |
